Entries annotated with measured cGMP Assay (EC50, pM) w/Casein, rNPRA
Molecular target: T1, rat NPRA (rat, UniProt P18910 29-1057)
T1 sequence (looked up): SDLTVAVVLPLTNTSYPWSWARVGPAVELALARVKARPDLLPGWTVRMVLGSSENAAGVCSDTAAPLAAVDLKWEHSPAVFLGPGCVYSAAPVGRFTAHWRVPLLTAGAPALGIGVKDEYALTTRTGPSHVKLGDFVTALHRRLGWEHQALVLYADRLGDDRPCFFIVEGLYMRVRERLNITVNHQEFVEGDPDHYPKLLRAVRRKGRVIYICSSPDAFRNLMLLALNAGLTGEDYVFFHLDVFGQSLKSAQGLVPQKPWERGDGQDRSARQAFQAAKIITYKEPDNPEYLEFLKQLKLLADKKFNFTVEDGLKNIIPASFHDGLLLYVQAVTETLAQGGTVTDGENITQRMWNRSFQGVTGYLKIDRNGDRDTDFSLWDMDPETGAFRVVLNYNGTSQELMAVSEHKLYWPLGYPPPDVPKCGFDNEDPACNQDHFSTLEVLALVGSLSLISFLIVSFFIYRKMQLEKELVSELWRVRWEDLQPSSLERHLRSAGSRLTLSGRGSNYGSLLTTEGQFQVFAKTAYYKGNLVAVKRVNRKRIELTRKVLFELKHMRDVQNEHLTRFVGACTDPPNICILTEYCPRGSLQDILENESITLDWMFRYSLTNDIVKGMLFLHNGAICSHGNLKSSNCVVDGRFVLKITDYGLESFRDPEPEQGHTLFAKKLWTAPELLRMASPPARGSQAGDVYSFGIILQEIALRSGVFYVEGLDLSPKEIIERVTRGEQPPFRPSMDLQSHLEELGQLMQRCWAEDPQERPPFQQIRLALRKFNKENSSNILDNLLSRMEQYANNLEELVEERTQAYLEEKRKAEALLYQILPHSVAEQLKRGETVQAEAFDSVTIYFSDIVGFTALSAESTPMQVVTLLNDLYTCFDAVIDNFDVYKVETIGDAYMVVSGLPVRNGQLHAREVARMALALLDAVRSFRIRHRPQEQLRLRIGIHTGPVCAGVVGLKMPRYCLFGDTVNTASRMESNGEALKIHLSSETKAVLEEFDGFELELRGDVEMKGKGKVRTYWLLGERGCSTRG
Test: cell-based or functional assay
Numbered stars: 1 amine (or outer) side, 2 acyl side, 3 side chain; on linkers, the order of the positions; unused ones are H or OH. Bridge positions count the residues as written; N and C are the ends. Square brackets hold non-standard residues; d marks the D form. * marks the point of attachment. thioacetal = thioacetal linkage between two cysteines (intrachain bond at the bracketed Cys); C20 diacid = O=C(O)CCCCCCCCCCCCCCCCCCC(=O)*; γGlu = O=C(O)[C@H](CCC(=O)[*:2])N[*:1]; βAla = NCCC(=O)O
State the answer as a number, implicitly in pM.

Known cGMP Assay (EC50, pM) w/Casein, rNPRA results, listed for orientation:
| Binder | cGMP Assay (EC50, pM) w/Casein, rNPRA |
| --- | --- |
| EKPRSSCFGKGIDRIGHQSGLGCPSFRHSGSPSSGAPPPSG (N-terminus acylated with HOOC-(CH2)18-CO-(γGlu)-; PEG24 after EKEKEKG; thioacetal linkage between the two bracketed Cys; C-terminal amide) [HOOC-(CH2)18-CO-(γGlu)-EKEKEKG-PEG24-EKPRSS[CFGKGIDRIGHQSGLGC]PSFRHSGSPSSGAPPPSG-NH2] | 580000 |
| SXRRSSCFGKRIDRIGHYSGLGCPSFRHGSPSSGAPPPS (N-terminus acylated with HOOC-(CH2)18-CO-(γGlu)-; PEG24 after EKEKEKG; 4Pal; thioacetal linkage between the two bracketed Cys; C-terminal amide) [HOOC-(CH2)18-CO-(γGlu)-EKEKEKG-PEG24-S-4Pal-RRSS[CFGKRIDRIGHYSGLGC]PSFRHGSPSSGAPPPS-NH2] | 5650 |

# evaluate next
Report cGMP Assay (EC50, pM) w/Casein, rNPRA, nothing else, for this binder: {C20 diacid-γGlu}-EKEKEKGEK[βAla]RSSCFGKRIDRIGHYSGLGCPSFRHGSPSSGAPPPS-NH2 (bridge 14-30 via thioacetal) [HOOC-(CH2)18-CO-(γGlu)-EKEKEKGEK-βAla-RSS[CFGKRIDRIGHYSGLGC]PSFRHGSPSSGAPPPS-NH2]
1340
